system-under-test: anti-MAG IgM antibodies
assay-text: Competitive binding assay (modified anti-MAG ELISA): compounds compete with immobilized MAG for anti-MAG IgM antibodies of patient sera
Design: species or system human
condition-label: patient serum SJ; approximated value, artificial point at 500 mM with 0% antibody binding added for curve fit
recorded-endpoint: pIC50
Note: pIC50 values are expressed as the negative base-10 logarithm of concentration in M.

// query Provide value of pIC50 for this record tested with anti-MAG IgM antibodies: COc1ccc(OC2OC(CO)C(O)C(OC3OC(C(=O)O)C(O)C(O)C3O)C2O)cc1 (stereo not shown)
// result 2.00

====

system-under-test: anti-MAG IgM antibodies
assay-text: Competitive binding assay (modified anti-MAG ELISA): compounds compete with immobilized MAG for anti-MAG IgM antibodies of patient sera
Set-up: species or system human
condition-label: patient serum SJ (dilution 1:7,500); MAG-coated plates
recorded-endpoint: pIC50
Note: pIC50 values are expressed as the negative base-10 logarithm of concentration in M.

// query If you can, please state the reported pIC50 value of COc1ccc(OC2OC(CO)C(O)C(OC3OC(C(=O)O)C(O)C(OS(=O)(=O)O)C3O)C2O)cc1 (stereo not shown) .
// result 3.10

// provenance: patent US11220523B2
